Compiled literature Ki, tested on Fatty-acid amide hydrolase 1 (Homo sapiens, UniProt O00519).
Sequence (O00519 whole entry): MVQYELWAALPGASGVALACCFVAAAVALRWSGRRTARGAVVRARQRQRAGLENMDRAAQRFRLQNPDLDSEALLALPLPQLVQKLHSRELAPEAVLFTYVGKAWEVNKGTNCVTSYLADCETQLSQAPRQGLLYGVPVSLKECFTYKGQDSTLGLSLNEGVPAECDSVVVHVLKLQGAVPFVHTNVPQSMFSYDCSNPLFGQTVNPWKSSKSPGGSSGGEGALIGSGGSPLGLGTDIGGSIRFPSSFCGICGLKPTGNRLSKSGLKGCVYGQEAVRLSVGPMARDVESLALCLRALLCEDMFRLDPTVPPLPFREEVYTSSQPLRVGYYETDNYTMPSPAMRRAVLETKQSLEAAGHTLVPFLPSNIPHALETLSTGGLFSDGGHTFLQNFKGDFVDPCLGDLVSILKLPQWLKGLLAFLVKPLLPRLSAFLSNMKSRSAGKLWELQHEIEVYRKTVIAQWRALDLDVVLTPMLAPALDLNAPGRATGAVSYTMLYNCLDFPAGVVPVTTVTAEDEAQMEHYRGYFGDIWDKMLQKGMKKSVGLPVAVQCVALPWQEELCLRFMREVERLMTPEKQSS
Quick note: give the figure in nM, leave out the unit.

Query: Identify the measured Ki of `CCCCCCCC/C=C\CCCCCCC(=O)C(N)=O` for Fatty-acid amide hydrolase 1 (Homo sapiens, UniProt O00519).
Reply: 16

Query: Value wanted: Ki (Fatty-acid amide hydrolase 1 (Homo sapiens, UniProt O00519)) of entry `CCCCCC[C@@H](C)OC(=O)CC(=O)CCl`
Reply: 1100

Query: For the record `CCCCCCCC/C=C\CCCCCCCC(=O)CBr` , what value of Ki is listed for Fatty-acid amide hydrolase 1 (Homo sapiens, UniProt O00519)?
Reply: 390

Query: Provide the documented Ki with Fatty-acid amide hydrolase 1 (Homo sapiens, UniProt O00519) as the system for `CCCCCCCC/C=C\CCCCCCC(=O)C(=O)OCC`
Reply: 1.4

Query: Any idea what Ki came out for `O=C(CCCCCCc1ccccc1)c1ncc(-c2cocn2)o1` on Fatty-acid amide hydrolase 1 (Homo sapiens, UniProt O00519)?
Reply: 4.6

Query: API: value(readout= Ki, system= Fatty-acid amide hydrolase 1 (Homo sapiens, UniProt O00519), query= `CCCCCCCCCCCC(=O)c1nc2ncccc2o1` )
Reply: 0.57

Query: Recorded Ki for `CCCCC(=O)c1nc2ncccc2o1` with Fatty-acid amide hydrolase 1 (Homo sapiens, UniProt O00519), please?
Reply: 50

Query: Item: `CCCCCCCCCCCCCC(=O)c1nc2ncccc2o1` Test system: Fatty-acid amide hydrolase 1 (Homo sapiens, UniProt O00519) Read-out: Ki Value: ?
Reply: 1.7

Query: Find Ki (Fatty-acid amide hydrolase 1 (Homo sapiens, UniProt O00519)) for the entry `CCCCCCCCCCCCCCCCCC(=O)c1nc2ncccc2o1`
Reply: 11

Query: Value wanted: Ki (Fatty-acid amide hydrolase 1 (Homo sapiens, UniProt O00519)) of entry `CCCCCCCC/C=C\CCCCCCC(=O)C(F)(F)F`
Reply: 2

Query: API: value(readout= Ki, system= Fatty-acid amide hydrolase 1 (Homo sapiens, UniProt O00519), query= `O=C(O)c1ccc(-c2cnc(C(=O)CCCCCCc3ccccc3)o2)nc1` )
Reply: 8

Query: Please provide the recorded Ki for `O=C(CCCCCCc1ccccc1)c1ncc(-c2cscn2)o1` , tested on Fatty-acid amide hydrolase 1 (Homo sapiens, UniProt O00519).
Reply: 5.8

Query: Recorded Ki for `CCCCCCCC/C=C\CCCCCCCC(=O)c1ncc(-c2ccccn2)o1` with Fatty-acid amide hydrolase 1 (Homo sapiens, UniProt O00519), please?
Reply: 3

Query: Notebook entry, Fatty-acid amide hydrolase 1 (Homo sapiens, UniProt O00519) assay: Ki of `O=C(CCCCCCc1ccccc1)c1ncc(-c2cnccn2)o1` = ?
Reply: 5.3

Query: Query Ki on Fatty-acid amide hydrolase 1 (Homo sapiens, UniProt O00519) for `CCCCCCCC/C=C\CCCCOC(=O)CC(=O)CBr`
Reply: 190
